I'd appreciate it if you could supply GI50 values for the items below.
Tested on: PC-3
assay-remarks: NCI tumour cell line growth inhibition, 48 h
Activity calls are given as the source filed them. Rule as the data show it: active = GI50 up to about 1.1 µM and inactive = higher.

Here's what some known entries look like.
{"columns": ["compound", "GI50"],
 "data": [
  ["COc1ccc(NC(=O)CC(=O)N2N=C(N(c3ccccc3)c3ccccc3)CC2c2ccccc2)cc1 (centres undefined)", "> 100 µM (inactive)"],
  ["COC(=O)C(C)(C)NC(=O)C(Cc1ccccc1)Nc1ncnc2c1ncn2-c1ccc(OC)cc1 (centres undefined)", "29.5 µM (inactive)"],
  ["CCOC(=O)C(=CNc1ccc(NC2=NCC(C)S2)cc1)C(=O)OCC (centres undefined)", "16.1 µM (inactive)"],
  ["Cc1nc(N)c(N2CCNCC2)c(O)n1", "> 100 µM (inactive)"],
  ["CNC(=O)Oc1ccc(-c2cn3cc(OC(=O)NC)ccc3n2)cc1", "49.9 µM (inactive)"],
  ["Cc1nc(C)c(N2CCN(S(=O)(=O)N(Cc3ccccc3)Cc3ccccc3)CC2)c(O)n1", "41.8 µM (inactive)"],
  ["O=C1c2ccccc2C(=O)c2nn(N=P(CP(=Nn3nc4c(n3)C(=O)c3ccccc3C4=O)(c3ccccc3)c3ccccc3)(c3ccccc3)c3ccccc3)nc21", "> 100 µM (inactive)"],
  ["Cc1cc(N(CCC#N)CCC#N)ccc1C(/N=N/c1ccc([N+](=O)[O-])cc1)=N\\NC(=O)c1ccccc1", "41.2 µM (inactive)"]
]}

Turning now to a further compound:
If you can, please state the reported GI50 value of "COc1ccc(N2C=Nn3c(nc4sc5c(c4c3=O)CCCC5)C2)cc1" .
> 100 µM (inactive)

* * *

System: SNB-19
assay-remarks: NCI tumour cell line growth inhibition, 48 h
Activity calls are given as the source filed them. Rule as the data show it: active = GI50 up to about 1.1 µM and inactive = higher.
measurement-type: GI50

Completed entries (count: 3):
{"columns": ["compound", "reported-measurement"],
 "data": [
  ["O=C1CCC2(c3ccc(Cl)cc3)Nc3ccccc3N12 (centres undefined)", "> 100 µM (inactive)"],
  ["Cc1nc(N)c(N2CCNCC2)c(O)n1", "> 100 µM (inactive)"],
  ["O=C(/C=C/c1ccccc1)C[C@@H](O)C[C@@H]1CC=CC(=O)O1", "15.9 µM (inactive)"]
]}

For every record below, what is its GI50?
1. Cc1c2cnccc2c(C)c2c1[nH]c1ccc(O)cc12
2. COc1cc(CC2c3cc(OC)c(OC)cc3CCN2C)ccc1O (centres undefined)
3. CCCCCCCCCCCC(=O)N(CCCCCCCCC)CC(O)C(O)C(OC1OC(CO)C(O)C(O)C1O)C(O)CO (centres undefined)
4. CCNC(=O)C1CCCN1C(=O)C(CCCN=C(N)N)NC(=O)C(CC(C)C)NC(=O)C(Cc1c[nH]c2ccccc12)NC(=O)C(Cc1ccc(O)cc1)NC(=O)C(CO)NC(=O)C(Cc1c[nH]c2ccccc12)NC(=O)C(Cc1c[nH]cn1)NC(=O)C1CCC(=O)N1 (centres undefined)
5. CCOC(=O)C(=CNC(=S)c1ccncc1)C(=O)OCC
6. CCOC(=O)C1(C(=O)OCC)C=C(c2ccccc2)N(C2OC(COC(C)=O)C(OC(C)=O)C(OC(C)=O)C2OC(C)=O)C1=S (centres undefined)

["3.21 µM (inactive)", "> 100 µM (inactive)", "20.6 µM (inactive)", "> 100 µM (inactive)", "> 100 µM (inactive)", "> 100 µM (inactive)"]

* * *

Test system: DMS-273
assay-remarks: NCI tumour cell line growth inhibition, 48 h
Active and inactive are the calls of the source. Rule as the data show it: active = GI50 up to about 1.1 µM and inactive = higher.
measurement-type: GI50

{"columns": ["molecule", "measurement-type", "reported-measurement"],
 "data": [
  ["NC1=NN(c2ccccc2)C(=O)C1C(=O)CCC(=O)Nc1cccc(C(F)(F)F)c1 (stereo not given)", "GI50", "> 100 µM (inactive)"],
  ["c1ccc(SCCCC(Sc2ccccc2)Sc2ccccc2)cc1", "GI50", "> 100 µM (inactive)"],
  ["CCC1(c2c(F)c(F)c(N)c(F)c2F)CCC(=O)NC1=O (stereo not given)", "GI50", "> 100 µM (inactive)"],
  ["COc1cc2c(cc1OC)[C@@H](C(O)c1ccccc1)NCC2 (stereo not given in full)", "GI50", "> 100 µM (inactive)"],
  ["O=C(CC(=O)n1nc(-c2ccccc2)c(/N=N/c2ccccc2Cl)c1-c1ccccc1)Nc1ccc(Cl)cc1", "GI50", "> 64.3 µM (inactive)"]
]}

Working through the 6 molecules below one at a time, give GI50 for each.
1. c1ccc(-c2ccnc3c2ccc2c(-c4ccccc4)ccnc23)cc1
2. Cc1coc2c1C(=O)C(=O)c1ccccc1-2
3. Cc1ccc(C(=O)Nc2ncn(C3CC(O)C(CO)O3)c(=O)n2)cc1 (stereo not given)
4. CC(C(=O)OCc1ccccc1)N(Cc1ccccc1)Cc1ccccc1 (stereo not given)
5. Cc1nc2c(=O)[nH]c(=O)n(C)c2[nH]c1=O.c1ccncc1
6. O=C(CCC(=O)Nc1ccc(Cl)c(Cl)c1)CC(=O)c1ccc(Cl)cc1

2.56 µM (inactive)
1.54 µM (inactive)
> 100 µM (inactive)
57.9 µM (inactive)
> 100 µM (inactive)
> 100 µM (inactive)

Hey, can you go through the list below and give me GI50 for every item?
1. O=C1C(=O)N(c2ccc(Cl)c(Cl)c2)C(=O)C(=O)C1c1nc2ccccc2o1
2. COc1ccc(C(=O)Cc2cc(OC)ccc2OC)cc1

70.3 µM (inactive)
> 100 µM (inactive)

Give measured GI50 for every item shown.
1. CC(=O)COC(=O)CC(C)=O
2. CCC(C)n1c(C)nc2c1C(=O)c1ccccc1C2=O (stereo not given)
3. COC(=O)C1=CC(=O)[C@@H]2CCCC[C@H]12
4. Cc1ccc(S(=O)(=O)NC(=O)NC23CC4CC(CC(F)(C4)C2)C3)cc1
5. O=C1C[C@H]2CC3(CC[C@H]2CN1)OCCO3

1. > 100 µM (inactive)
2. 34.2 µM (inactive)
3. > 100 µM (inactive)
4. > 100 µM (inactive)
5. > 100 µM (inactive)

* * *

Assign GI50 to each entry below.
System: HCT-116
assay-remarks: NCI tumour cell line growth inhibition, 48 h
Calls of active or inactive are those of the source. Rule as the data show it: active = GI50 up to about 1.1 µM and inactive = higher.

These recorded examples may help you get a feel for the data.
{"columns": ["compound", "GI50"],
 "data": [
  ["COC(=O)C(C(=O)C(=O)Nc1ccc(OC)cc1[N+](=O)[O-])c1nc2cc(C)c(C)cc2nc1O (stereo unspecified)", "> 100 µM (inactive)"],
  ["NNC(=O)CNc1cccc(Br)c1", "> 100 µM (inactive)"],
  ["Cc1c2c(c(C)c3c4c(oc13)CCCC4)C=NCC2", "14.9 µM (inactive)"],
  ["C1=N\\c2ccc(cc2)-c2ccc(cc2)/N=C\\c2ccc(cc2)OCc2cccc(n2)COc2ccc/1cc2", "> 100 µM (inactive)"],
  ["C[B@@-]1(c2ccc(C(F)(F)F)cc2)N[C@@H](Cc2ccccc2)C(=O)O1", "> 100 µM (inactive)"],
  ["CN(CC(=O)O)c1ccc(/C=C/c2ccnc3ccccc23)cc1", "23.8 µM (inactive)"]
]}

# per-item lookup of GI50; items listed below
1. CCOC(=O)C(=CNc1ccc(NC2=NCC(C)S2)cc1)C(=O)OCC (stereo unspecified)
2. N#CCCC(C#N)(C#N)CCC#N
3. CCOC(=O)C1=NN(c2ccccc2)C2=CC(C)=NN(C)C(=S)N21
4. Cc1ccc2c(O)cc(-c3cccs3)nc2n1

1: 35.2 µM (inactive); 2: > 100 µM (inactive); 3: > 100 µM (inactive); 4: 4.81 µM (inactive)

Could you tell me which GI50 is on file for COc1ccc2c(c1)OC(c1cccnc1)C(c1ccccc1)C2=O (stereo unspecified) ?
97.5 µM (inactive)

* * *

Tested on: Hs-578T
assay-remarks: NCI tumour cell line growth inhibition, 48 h
The source made the active and inactive calls. No stated cut-off is given here; in the data, active = GI50 up to about 1.1 µM and inactive = higher.
Form entry, call: pick from active, inactive

{"columns": ["compound", "label-value"],
 "data": [
  ["CC(=O)NC1c2ccccc2C(C)(C)C12CCC1(CC2)OCCO1 (stereo not drawn)", "inactive"],
  ["Nc1nc(SC/C=C/c2ccccc2)c2[nH]cnc2n1", "inactive"],
  ["CC1OC(OC2C(CO)OC(O[C@H]3CC[C@@]4(C)C(=CC[C@H]5[C@@H]6C[C@@H]7O[C@](O)(CC[C@@H](C)COC8OC(CO)C(O)C(O)C8O)[C@@H](C)[C@@H]7[C@@]6(C)CC[C@@H]54)C3)C(OC3OC(C)C(O)C(O)C3O)C2O)C(O)C(O)C1O (stereo partly drawn)", "inactive"]
]}

Check the results log: what was the call for "O=C(C[n+]1ccc2ccccc2c1)c1ccc2ccc3ccccc3c2c1" ?
inactive

Could you check what this test reported for "CC(=O)c1cc2c(s1)C(=O)c1scc(C(C)=O)c1C2=O" ?
active

Called result for "O=C1/C(=C/c2ccc(F)cc2)CNC/C1=C\c1ccc(F)cc1"
inactive

For "Cc1cc(C)nc(NS(=O)(=O)c2ccc(NC(=O)c3cccc4c(NNc5ccc(S(=O)(=O)N=C(N)N)cc5)c5ccccc5nc34)cc2)n1" , what call appears in the results of this test?
inactive

Please indicate how the test categorized "NNC(=O)CNc1cccc(Br)c1" .
inactive
